assay: qHTS for Inhibitors of human tyrosyl-DNA phosphodiesterase 1 (TDP1): qHTS in cells in absence of CPT; conditions: DT40 Tdp1-/- hTDP1 cells, no CPT, ATP luminescence, 48 h; note: nearly all actives have a fitted effect of over 55% in size; note: potency is the fitted concentration of half-maximal effect
About 64,000 (15%) of roughly 420,000 compounds were called active. Roughly 27% stayed inconclusive and do not appear here. These entries were drawn from the full list.
parameter: Potency

Illustrative cases are given below, each with its answer.
compound	Potency
CCOC(=O)c1c(NC(=O)CSc2cn(CCNC(=O)c3cccc(C(F)(F)F)c3)c3ccccc23)sc2c1CCC2	inactive
CCOC(=O)CCCN1CC(O)=C(c2nc3ccccc3s2)C1=N	inactive
COc1ccc(S(=O)(=O)NCC(c2ccc(N(C)C)cc2)N2CCc3ccccc32)cc1OC (stereo not given)	inactive
O=C(NN1CCOCC1)c1cccc(F)c1	inactive
COc1cc(C(=O)NCC(c2ccco2)N2CCCC2)ccc1OCc1ccccc1 (stereo not given)	inactive
COc1ccc(C(=O)NCC(c2ccc(N(C)C)cc2)N2CCc3ccccc32)c(OC)c1 (stereo not given)	20.6 µM (active)
O=C(Nn1c(-c2ccccc2)nc2ccccc2c1=O)c1ccc([N+](=O)[O-])cc1	inactive
CN(C)C(CNC(=O)c1cccc(C#N)c1)c1ccco1 (stereo not given)	inactive

Fill blank: measured Potency of the compound N=C1C(c2nc3ccccc3s2)=C(O)CN1NC(=O)c1ccc([N+](=O)[O-])cc1 is ____. 23.1 µM (active)

Likewise for Cc1ccc(NC(=O)NCC(c2cccnc2)N2CCOCC2)cc1 (stereo not given) ? inactive

###

test: qHTS for Inhibitors of human tyrosyl-DNA phosphodiesterase 1 (TDP1): qHTS in cells in absence of CPT; conditions: DT40 Tdp1-/- hTDP1 cells, no CPT, ATP luminescence, 48 h; note: nearly all actives have a fitted effect of over 55% in size
In all, about 420,000 compounds went through this assay and about 64,000 (15%) were called active. Another 27% or so got no clear call; they are omitted. The call rests on the fitted dose curve; in most records, active means well fitted inhibition curve with a large enough effect; inconclusive means small, poorly fitted or top-dose-only effect; inactive means flat fitted curve, though single readings scatter. These entries were drawn from the full list.
Reply using exactly one outcome from true (1) (active), false (0) (inactive)

molecule	cat
O=C1C(=O)N(CC2COc3ccccc3O2)c2ccccc21 (stereo not given)	true (1)

For O=C(CN1C(=O)C2C3C=CC(C3)C2C1=O)NCC1COc2ccccc2O1 (stereo not given) , which call appears in the assay record? false (0)

Also CC(=O)NC1C(Oc2ccc(C=O)cc2)OC(COC(C)=O)C(OC(C)=O)C1OC(C)=O (stereo not given) , if possible. false (0)

Please do the same for O=C(NC(Cc1ccc(O)cc1)C(=O)O)/C(=C/c1ccccc1)NC(=O)c1ccccc1 (stereo not given) as well. false (0)

Request: CCn1ccnc1C[C@@H]1COc2ccccc2O1 false (0)

Proceed to NC(=O)CC(NC(=O)Cc1cccc2ccccc12)c1ccc(NCc2cc(F)ccc2F)c([N+](=O)[O-])c1 (stereo not given) true (1)

// next record CCn1c(SCC(=O)Nc2ccc(S(=O)(=O)Nc3onc(C)c3C)cc2)nnc1-c1ccccc1 false (0)

###

experiment: qHTS for Inhibitors of human tyrosyl-DNA phosphodiesterase 1 (TDP1): qHTS in cells in absence of CPT; details: DT40 Tdp1-/- hTDP1 cells, no CPT, ATP luminescence, 48 h; note: nearly all actives have a fitted effect of over 55% in size
Screen size: about 420,000 compounds; about 64,000 (15%) were called active. About 27% were inconclusive and are not listed. Calls follow the shape of the dose curve; as a rule, active = well fitted inhibition curve with a large enough effect; inconclusive = small, poorly fitted or top-dose-only effect; inactive = flat fitted curve, though single readings scatter. Not all results are given here.
Valid outcomes are listed here; reply with one: active, inactive

molecule	cat
O=C(Nn1cnnc1)c1ccc([N+](=O)[O-])cc1	inactive
O=C(CCN1CCc2ccccc2C(O)(c2ccccc2)C1)c1ccc2c(c1)OCCO2 (stereo unspecified)	active
O=C(COC(=O)c1ccccc1)c1ccc2c(c1)OCCO2	inactive
O=C(Nc1cccc2cccnc12)c1cccc(N2C(=O)CCC2=O)c1	inactive
O=C(NCCCN1CCOCC1)C1CCCN(S(=O)(=O)N2CCCCC2)C1 (stereo unspecified)	inactive

// outcome(item) with item = O=C(C1CCC1)N1CCN(c2ccccc2)CC1 inactive

Same read-out for CC1=C(C(=O)Nc2ccc(Cl)cc2)C(c2ccco2)NC(=O)N1 (stereo unspecified) ? inactive

What would you report for Cc1ccc(S(=O)(=O)c2c[nH]c3ccc(C)cc3c2=O)cc1 ? inactive

Same thing, different molecule: Cc1ccc(C(c2sc3nc(C)nn3c2O)N2CCN(c3ccc(F)cc3)CC2)cc1 (stereo unspecified) inactive

# iterate: COc1ccc(C(=O)Nc2cccnc2)cc1C(=O)Nc1cccnc1 inactive

// next record O=C(c1ccncc1)c1ccc([N+](=O)[O-])cc1 inactive

###

test: qHTS for Inhibitors of human tyrosyl-DNA phosphodiesterase 1 (TDP1): qHTS in cells in absence of CPT; conditions: DT40 Tdp1-/- hTDP1 cells, no CPT, ATP luminescence, 48 h; note: nearly all actives have a fitted effect of over 55% in size; note: potency is the fitted concentration of half-maximal effect
In all, about 420,000 compounds went through this assay and about 64,000 (15%) were called active. Not shown: some 27% with an inconclusive outcome. The list is a sample of the results.
parameter: Potency

molecule	parameter	result
C#Cc1ccc(NC(=O)C2(C)CCN2C(=O)Cc2ccc(-c3ccccc3)cc2)cc1 (stereo not drawn)	Potency	20.6 µM (active)
Fc1ccccc1Cc1ccc(Cl)nn1	Potency	inactive
CC(C)(C)CC(=O)Nc1nc(C(N)Cc2ccc(C(F)(F)F)cc2)cs1 (stereo not drawn)	Potency	16.4 µM (active)
Cc1ccccc1N1CC(C(=O)Nc2ccc3c(c2)OCO3)CC1=O (stereo not drawn)	Potency	inactive
COc1ccc(NC(=O)C(=O)NCC(=O)Nc2cccc(C(F)(F)F)c2)cc1	Potency	inactive
COc1ccc(/C=C(\NC(=O)c2ccccc2)C(=O)NCCN2CCOCC2)cc1OC	Potency	inactive

Need Potency of COc1cc(C)nc(N2CCCC(C(=O)NCC(C)C)C2)n1 (stereo not drawn) , thanks. inactive

Okay, and COc1ccc(NC(=O)C(Br)C(C)C)cc1 (stereo not drawn) ? inactive

Queued: Oc1cccc(/C=N/Nc2ccc(Cl)nn2)c1O 0.13 µM (active)

Same again, this time with COc1cc(C(=O)N(Cc2ccc(N(C)C)cc2)C2CCS(=O)(=O)C2)cc(OC)c1OC (stereo not drawn) inactive

Record: CCC(=O)/C(=C(/O)c1ccccc1)c1nc2ccccc2[nH]1 inactive

###

test: qHTS for Inhibitors of human tyrosyl-DNA phosphodiesterase 1 (TDP1): qHTS in cells in absence of CPT; conditions: DT40 Tdp1-/- hTDP1 cells, no CPT, ATP luminescence, 48 h; note: nearly all actives have a fitted effect of over 55% in size; note: potency is the fitted concentration of half-maximal effect
Hit rate of the full screen: of about 420,000 compounds, about 64,000 (15%) were called active. Inconclusive results (about 27%) are left out. The list is a sample of the results.
parameter: Potency

Completed entries (count: 5):
molecule	Potency
COc1ccc(C(=O)Nc2sc(C)c(C)c2CN2CCOCC2)cc1	23.1 µM (active)
COC(=O)c1ccccc1Oc1c(F)c(F)nc(N2CCOCC2)c1F	inactive
O=C(CN1C(=O)c2ccccc2S1(=O)=O)N1CCc2ccccc21	inactive
Cc1cc(C)cc(NC(=O)CCN2C(=O)c3ccccc3C2=O)c1	inactive
CN(C(=O)CCN1C(=O)/C(=C/c2ccccc2F)SC1=S)C1CCS(=O)(=O)C1 (stereo unspecified)	23.1 µM (active)

Consider the molecule CCOC(=O)c1ccc(N2C(=O)CC(Sc3nc(O)c(CC)c(=O)[nH]3)C2=O)cc1 (stereo unspecified) and give its measured Potency. inactive

Now give it for O=C(CCNC(=O)c1ccccc1Cl)NN=Cc1ccco1 too. inactive

Lookup COc1ccc(N2C(=O)CC(SC(C)C)C2=O)cc1 (stereo unspecified) inactive

Follow-up item: COc1cc(NC(=O)COC(=O)CSc2ccc3ccccc3c2)c(C)cc1[N+](=O)[O-] inactive

Please give the result for O=C1C(=O)N(CCN2CCOCC2)C(c2cccc(Cl)c2)/C1=C(/O)c1ccc2c(c1)OCO2 (stereo unspecified) too. inactive

Next: CC(=O)Nc1ccc(S(=O)(=O)N(C)c2ccc(OCC(=O)OCC(=O)N3CCCCC3)cc2)cc1 inactive

Next: COc1ccc(-c2[nH]nc(-c3ccccc3)c2-c2nc3ccccc3[nH]2)cc1 inactive

Same question, C#CCCCc1nc2ccccc2c(=O)n1N this time inactive

Next molecule: Cc1ccccc1C(=O)NC(=S)Nc1ccc(N2CCN(C(=O)c3ccccc3)CC2)cc1 10.3 µM (active)

# iterate: Cc1ccccc1C(=O)N1CCN(c2ccc(NC(=O)c3cccs3)cc2)CC1 16.4 µM (active)

Follow-up entry: Cn1c(=N)n(CC(O)c2cccs2)c2ccccc21 (stereo unspecified) inactive

Moving on to the next molecule: O=C1CC(Sc2ncn[nH]2)C(=O)N1c1ccccc1 (stereo unspecified) 11.6 µM (active)

Entry to check: Cc1cccc(NC(=O)CCn2c(=O)oc3ccccc32)c1 inactive

Try COc1ccc(-c2nc(SCC(=O)N3CCOCC3)n[nH]2)cc1 next. inactive

Also, CSc1ccc(NC(=O)/C=C/C(=O)O)cc1 please. inactive

###

experiment: qHTS for Inhibitors of human tyrosyl-DNA phosphodiesterase 1 (TDP1): qHTS in cells in absence of CPT; conditions: DT40 Tdp1-/- hTDP1 cells, no CPT, ATP luminescence, 48 h; note: nearly all actives have a fitted effect of over 55% in size
Hit rate of the full screen: of about 420,000 compounds, about 64,000 (15%) were called active. Roughly 27% stayed inconclusive and do not appear here. Calls follow the shape of the dose curve; as a rule, active = well fitted inhibition curve with a large enough effect; inconclusive = small, poorly fitted or top-dose-only effect; inactive = flat fitted curve, though single readings scatter. A selection follows.
Result category, one only: active, inactive

Worked examples follow.
compound	cat
COc1ccccc1CNC(=O)C1CCN(c2nc3ccccc3o2)CC1	inactive
CC(=O)c1c(C)[nH]c(C(=O)COc2ccc3c(C)cc(=O)oc3c2)c1C	active
CC(=O)c1cccc(OCC(=O)OCC(=O)Nc2cc(S(=O)(=O)N3CCCCC3)ccc2C)c1	inactive
COc1cc(/C=C/C(=O)OCC(=O)NC(=O)NCc2ccccc2)ccc1OCC#N	inactive
CNc1[nH]ncc1[N+](=O)[O-]	inactive
COc1ccc2nc(N3C(=O)C(O)=C(C(=O)c4ccco4)C3c3ccco3)sc2c1 (configuration not stated)	inactive

Recorded test outcome, item CCOC(=O)C(CCOc1cccc(CC)c1)C(=O)OCC inactive

Item: COc1cc(C(=O)NC2CCN(C)CC2)ccc1Nc1ncc2c(n1)N(C1CCC(O)CC1)CCC(=O)N2C (configuration not stated) active
